Source of measurements: the supplement of paper PMC6555819

- System: PPARg:RXRa 270nM:90nM, anti-RXR (NR concentration 270 nM, RXRa partner concentration 90 nM)
- ASSAY: PBM binding z-score (relative to random genomic background probes); higher = stronger binding; sequences stand for … in GC…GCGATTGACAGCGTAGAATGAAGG
Exercise: state measured PBM binding z-score for each of the sequences provided.
One number for each entry.

Go through the items and report each one's PBM binding z-score.
1. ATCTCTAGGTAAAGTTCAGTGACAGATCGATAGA
2. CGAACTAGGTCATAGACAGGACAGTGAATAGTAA
3. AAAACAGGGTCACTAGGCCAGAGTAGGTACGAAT
4. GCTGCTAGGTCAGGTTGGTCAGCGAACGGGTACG
5. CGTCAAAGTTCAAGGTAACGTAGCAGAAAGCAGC

**Result**
4.29
6.26
7.23
0.793
5.21
